Tested on: fresh human hepatocytes
Measurement notes: Release of active metabolite in fresh human hepatocytes
Type: in vitro ADME
Test conditions: 10 μM
Procedure: Assay for the Release of Active Metabolite in Primary Hepatocytes: Plates of fresh human and mouse hepatocytes were obtained on ice. The medium was removed and replaced with hepatocyte culture medium (William's E supplemented with penicillin-streptomycin, 1% L-glutamine, 1% insulin-transferrin-selenium and 0.1 μM Dexamethasone (Invitrogen) or with Invitro GRO HI medium complemented with Torpedo antibiotics (Celsis)). […]
Entries are sorted into classes by FHH TP AUC (pmol · hr/mill cells) as follows: low: < 800 pmol · hr/mill cells; mid: ≥ 800 pmol · hr/mill cells and < 2000 pmol · hr/mill cells; high: ≥ 2000 pmol · hr/mill cells

>  <Compound>
CCOC(=O)C(C)(C)NP1(=O)OC[C@H]2O[C@@H](n3cnc4c(OCC)nc(N)nc43)[C@](C)(F)[C@@H]2O1 (single isomer, unassigned) [Compound 7 Diastereomer 2]

>  <Class>
mid

$$$$
>  <Compound>
CCOc1nc(N)nc2c1ncn2[C@@H]1O[C@@H]2COP(=O)(N[C@@H](C)COC(=O)C(C)C)O[C@H]2[C@@]1(C)F (single isomer, unassigned) [Compound 3 Diastereomer 2]

>  <Class>
mid

$$$$
>  <Compound>
CCOc1nc(N)nc2c1ncn2[C@@H]1O[C@@H]2COP(=O)(N[C@@H](C)C(=O)OC(C)C)O[C@H]2[C@@]1(C)F (single isomer, unassigned) [Compound 1 Diastereomer 1]

>  <Class>
high

$$$$
>  <Compound>
CCOc1nc(N)nc2c1ncn2[C@@H]1O[C@@H]2COP(=O)(NCCC(=O)OC(C)C)O[C@H]2[C@@]1(C)F (single isomer, unassigned) [Compound 2 Diastereomer 2]

>  <Class>
low

$$$$
>  <Compound>
CCOc1nc(N)nc2c1ncn2[C@@H]1O[C@@H]2COP(=O)(N[C@@H](C)C(=O)OCC(C)C)O[C@H]2[C@@]1(C)F (single isomer, unassigned) [Compound 4 Diastereomer 2]

>  <Class>
mid

$$$$
>  <Compound>
CCOc1nc(N)nc2c1ncn2[C@@H]1O[C@@H]2COP(=O)(N[C@@H](CC)COC(=O)C(C)C)O[C@H]2[C@@]1(C)F (single isomer, unassigned) [Compound 8 Diastereomer 1]

>  <Class>
low

$$$$
>  <Compound>
CCOC(=O)C(C)(C)NP1(=O)OC[C@H]2O[C@@H](n3cnc4c(OCC)nc(N)nc43)[C@](C)(F)[C@@H]2O1 (single isomer, unassigned) [Compound 7 Diastereomer 1]

>  <Class>
mid

$$$$
>  <Compound>
CCOc1nc(N)nc2c1ncn2[C@@H]1O[C@@H]2COP(=O)(N[C@@H](C)C(=O)OC3CCCC3)O[C@H]2[C@@]1(C)F (single isomer, unassigned) [Compound 10 Diastereomer 2]

>  <Class>
high

$$$$
>  <Compound>
CCOc1nc(N)nc2c1ncn2[C@@H]1O[C@@H]2COP(=O)(N[C@@H](C)C(=O)OC(C)C)O[C@H]2[C@@]1(C)O (single isomer, unassigned) [Compound 5 Diastereomer 1]

>  <Class>
high

$$$$
>  <Compound>
CCOc1nc(N)nc2c1ncn2[C@@H]1O[C@@H]2COP(=O)(N[C@@H](CC)COC(=O)C(C)C)O[C@H]2[C@@]1(C)F (single isomer, unassigned) [Compound 8 Diastereomer 2]

>  <Class>
low

$$$$

Values were extracted from patent US9109001B2.
